test: NCI Yeast Anticancer Drug Screen. Data for the sgs1 mgt1 strain (AID 161); details: S. cerevisiae sgs1 mgt1 strain, at 50.0 µM, stronger effect = higher value
About 79,000 compounds went through this panel and 15% of them were active in at least one assay; those are over-represented in the sample as a whole.
We use 20% as the dividing line for growth inhibition: on or above the line is Y, below is N.

### Prompt Hi team, for COc1ccc(OC)c(C2SCC(=O)N2c2nncs2)c1 (configuration not stated) , is the recorded growth inhibition at or above 20%?
### Response N

### Prompt Hi team, for CC1(c2ccccc2)CCC(=O)NC1 (configuration not stated) , is the recorded growth inhibition at or above 20%?
### Response N

### Prompt Hi team, for O=Ic1ccccc1 , is the recorded growth inhibition at or above 20%?
### Response N

### Prompt Hi team, for CC(=O)Nc1ccc(Cc2ccc3[nH]c(=O)cc(C)c3c2)cc1 , is the recorded growth inhibition at or above 20%?
### Response N

### Prompt Hi team, for OC(C/C(=N\Nc1ccccc1)c1ccc(Br)cc1)(C(F)(F)F)C(F)(F)F , is the recorded growth inhibition at or above 20%?
### Response Y

### Prompt Hi team, for Oc1ccc2cccc(O)c2c1 , is the recorded growth inhibition at or above 20%?
### Response Y

### Prompt Hi team, for CCOC(=O)C(N=Nc1ccccc1)C(=O)c1ccccc1 (configuration not stated) , is the recorded growth inhibition at or above 20%?
### Response Y
